The origin of these recorded values is patent US11286242B2.

# Tested on: Botrytis cinerea
# testMethodNotes: Botrytis cinerea (gray mold) radial mycelial growth on Potato Dextrose Agar
# Assay type: cell-based
# settings: 168 h, 22° C., 90% relative humidity, seven days, read-out: control compared to the untreated check
observedProperty: inhibition of growth at 300 ppm

Take a look at these entries with their results.
COc1ccc(S(=O)(=O)NC(=O)c2ccc(-c3noc(C(F)(F)F)n3)cc2)cc1 [Compound 157] : > 70%
COc1ccc(S(C)(=O)=Nc2ccc(-c3noc(C(F)(F)F)n3)nc2)cc1 (stereo not drawn) [Compound 108] : > 70%

response.value for O=C(NS(=O)(=O)c1ccc(Cl)cc1Cl)c1ccc(-c2noc(C(F)(F)F)n2)cc1 [Compound 156] (field: inhibition of growth at 300 ppm) = > 70%
